Cited source: patent US7087623B2

target_or_system: human serotonin 5-HT6 receptor (Homo sapiens, UniProt P50406)
Construct: expressed in transfected cells; host or cells: HeLa/E6-7
Sequence (P50406 whole entry): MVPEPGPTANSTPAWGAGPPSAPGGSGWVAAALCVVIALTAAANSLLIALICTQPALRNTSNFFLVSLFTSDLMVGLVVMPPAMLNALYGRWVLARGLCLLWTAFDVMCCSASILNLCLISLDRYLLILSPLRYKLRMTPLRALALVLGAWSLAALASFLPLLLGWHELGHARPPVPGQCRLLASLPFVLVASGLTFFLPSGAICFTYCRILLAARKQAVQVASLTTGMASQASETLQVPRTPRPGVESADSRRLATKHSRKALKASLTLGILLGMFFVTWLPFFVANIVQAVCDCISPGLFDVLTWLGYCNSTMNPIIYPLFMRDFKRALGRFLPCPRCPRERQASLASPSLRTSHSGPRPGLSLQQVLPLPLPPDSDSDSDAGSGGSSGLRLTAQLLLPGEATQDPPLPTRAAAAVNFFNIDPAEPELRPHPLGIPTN
assay_details: Radioligand binding assay, human 5-HT6 receptors ([3H]LSD)
condition_context: human; Example 100 table; read-out: IC50 (nM) 5-HT6
experimental_endpoint: IC50

Clc1ccc(C2(c3csc(NC4CCN(Cc5ccccc5)C4)n3)CCCCC2)cc1 (stereo not shown)    > 1000 nM
COc1cccc(C2(c3csc(N4CCN(C)CC4)n3)CCOCC2)c1    < 1000 nM
CN1CCCC1CCNc1nc(C2(c3ccccc3F)CCCCC2)cs1 (racemic) [Compound 128]    < 100 nM
Fc1ccccc1C1(c2csc(N3CCN(Cc4ccc(Cl)cc4)CC3)n2)CCCC1    > 1000 nM
Clc1ccc(C2(c3csc(NCCN4CCCCC4)n3)CCCC2)cc1    < 1000 nM
CNC1CCN(c2nc(C3(c4ccccc4F)CCCCC3)cs2)C1 (stereo not shown)    < 1000 nM

# context switch: different molecule, same IC50
Provide measured IC50 value, entry: CCN1CCCC1CNc1nc(C2(c3ccccc3F)CCCCC2)cs1 (racemic)
< 1000 nM
